- Assay: Cytotoxicity against human MT4 cells assessed as growth inhibition after 5 days by MTT assay
- Type: cell-based
Reported Property: CC50 at 120 h (µM)
Field format: number, assumed µM, no unit text.

Problem: Entry Cc1cc(Cl)cc(C)c1Oc1cc(Nc2ccc(C#N)cc2)ncc1[N+](=O)[O-] : reported CC50 at 120 h = ?
Result: 11.1

Problem: Input Cc1cc(C)c(Oc2cc(Nc3ccc(C#N)cc3)ncc2[N+](=O)[O-])c(C)c1
Result: 69.9

Problem: Input N#Cc1ccc(Nc2cc(Oc3c(Cl)cc(Cl)cc3Cl)c([N+](=O)[O-])cn2)cc1
Result: 16.2

* * *

Listed here: compounds with reported pIC50 for Human immunodeficiency virus type 1 reverse transcriptase (Human immunodeficiency virus 1).
Scale explanation: pIC50 corresponds to minus log10 of a concentration expressed in moles per litre.

Problem: Entry Cc1cc(C)c(Oc2cc(Nc3ccc(C#N)cc3)ncc2[N+](=O)[O-])c(C)c1 : reported pIC50 = ?
Result: 5.16

Problem: Input Cc1cc(C#N)cc(C)c1Oc1cc(Nc2ccc(C#N)cc2)ncc1[N+](=O)[O-]
Result: 5.07

Problem: Input Cc1cc(Br)c(Oc2cc(Nc3ccc(C#N)cc3)ncc2[N+](=O)[O-])c(Br)c1
Result: 4.98

* * *

- Assay: Cytotoxicity against human MT4 cells assessed as growth inhibition after 5 days by MTT assay
- Format: cell-based
Would you kindly list CC50 at 120 h for each of these molecules?

Problem: Entry O=C1Nc2ccc(Cl)cc2[C@@](C#CC2CC2)(C(F)(F)F)O1 [EFAVIRENZ] : reported CC50 at 120 h = ?
Result: > 6.34 µM

Problem: Input Cc1cc(Br)c(Nc2cc(Nc3ccc(C#N)cc3)ncc2[N+](=O)[O-])c(Br)c1
Result: 167 µM

Problem: Input Cc1cn([C@H]2C[C@H](N=[N+]=[N-])[C@@H](CO)O2)c(=O)[nH]c1=O [ZIDOVUDINE]
Result: > 93.5 µM

Problem: Input N#Cc1ccc(Nc2cc(Oc3c(Cl)cccc3Cl)c([N+](=O)[O-])cn2)cc1
Result: 27.7 µM

Problem: Input N#Cc1ccc(Nc2cc(Nc3c(F)cc(Br)cc3Br)c([N+](=O)[O-])cn2)cc1
Result: 149 µM

Problem: Input Cc1cc(C)c(Nc2cc(Nc3ccc(C#N)cc3)ncc2[N+](=O)[O-])c(C)c1
Result: 262 µM

Problem: Input N#Cc1ccc(Nc2cc(Oc3c(Cl)cc([N+](=O)[O-])cc3Cl)c([N+](=O)[O-])cn2)cc1
Result: 26.5 µM

Problem: Input Cc1cc(C#N)cc(C)c1Oc1cc(Nc2ccc([N+](=O)[O-])cc2)ncc1[N+](=O)[O-]
Result: 141 µM

Problem: Input COc1cccc(OC)c1Oc1cc(Nc2ccc(C#N)cc2)ncc1[N+](=O)[O-]
Result: 319 µM

Problem: Input Cc1cccc(C)c1Oc1cc(Nc2ccc(C#N)cc2)ncc1[N+](=O)[O-]
Result: 126 µM

Problem: Input N#Cc1ccc(Nc2cc(Oc3c(Br)cc(Br)cc3Br)c([N+](=O)[O-])cn2)cc1
Result: 7.49 µM

Problem: Input Cc1ccc(Nc2cc(Oc3c(C)cc(C#N)cc3C)c([N+](=O)[O-])cn2)cc1
Result: 207 µM

Problem: Input Cc1cc(Br)c(Oc2cc(Nc3ccc(C#N)cc3)ncc2[N+](=O)[O-])c(Br)c1
Result: 23.6 µM

Problem: Input Cc1cc(Br)cc(C)c1Oc1cc(Nc2ccc(C#N)cc2)ncc1[N+](=O)[O-]
Result: 12.3 µM

Problem: Input Cc1cc(C#N)cc(C)c1Oc1cc(Nc2ccc(C#N)cc2)ncc1[N+](=O)[O-]
Result: 36.1 µM

Problem: Input Cc1ccnc2c1NC(=O)c1cccnc1N2C1CC1 [NEVIRAPINE]
Result: > 15 µM

Problem: Input Cc1cccc(C)c1Nc1cc(Nc2ccc(C#N)cc2)ncc1[N+](=O)[O-]
Result: 12.8 µM

Problem: Input CC(C)Nc1cccnc1N1CCN(C(=O)c2cc3cc(NS(C)(=O)=O)ccc3[nH]2)CC1 [DELAVIRDINE]
Result: > 36.2 µM

Problem: Input N#Cc1ccc(Nc2cc(Oc3c(F)cc(F)cc3F)c([N+](=O)[O-])cn2)cc1
Result: 3.54 µM
